Values compiled from patent US9359330B2.

Biological target: human Nav1.7 (Homo sapiens (Human))
Sequence (Q15858 other isoform, or with tags, fused parts or gaps): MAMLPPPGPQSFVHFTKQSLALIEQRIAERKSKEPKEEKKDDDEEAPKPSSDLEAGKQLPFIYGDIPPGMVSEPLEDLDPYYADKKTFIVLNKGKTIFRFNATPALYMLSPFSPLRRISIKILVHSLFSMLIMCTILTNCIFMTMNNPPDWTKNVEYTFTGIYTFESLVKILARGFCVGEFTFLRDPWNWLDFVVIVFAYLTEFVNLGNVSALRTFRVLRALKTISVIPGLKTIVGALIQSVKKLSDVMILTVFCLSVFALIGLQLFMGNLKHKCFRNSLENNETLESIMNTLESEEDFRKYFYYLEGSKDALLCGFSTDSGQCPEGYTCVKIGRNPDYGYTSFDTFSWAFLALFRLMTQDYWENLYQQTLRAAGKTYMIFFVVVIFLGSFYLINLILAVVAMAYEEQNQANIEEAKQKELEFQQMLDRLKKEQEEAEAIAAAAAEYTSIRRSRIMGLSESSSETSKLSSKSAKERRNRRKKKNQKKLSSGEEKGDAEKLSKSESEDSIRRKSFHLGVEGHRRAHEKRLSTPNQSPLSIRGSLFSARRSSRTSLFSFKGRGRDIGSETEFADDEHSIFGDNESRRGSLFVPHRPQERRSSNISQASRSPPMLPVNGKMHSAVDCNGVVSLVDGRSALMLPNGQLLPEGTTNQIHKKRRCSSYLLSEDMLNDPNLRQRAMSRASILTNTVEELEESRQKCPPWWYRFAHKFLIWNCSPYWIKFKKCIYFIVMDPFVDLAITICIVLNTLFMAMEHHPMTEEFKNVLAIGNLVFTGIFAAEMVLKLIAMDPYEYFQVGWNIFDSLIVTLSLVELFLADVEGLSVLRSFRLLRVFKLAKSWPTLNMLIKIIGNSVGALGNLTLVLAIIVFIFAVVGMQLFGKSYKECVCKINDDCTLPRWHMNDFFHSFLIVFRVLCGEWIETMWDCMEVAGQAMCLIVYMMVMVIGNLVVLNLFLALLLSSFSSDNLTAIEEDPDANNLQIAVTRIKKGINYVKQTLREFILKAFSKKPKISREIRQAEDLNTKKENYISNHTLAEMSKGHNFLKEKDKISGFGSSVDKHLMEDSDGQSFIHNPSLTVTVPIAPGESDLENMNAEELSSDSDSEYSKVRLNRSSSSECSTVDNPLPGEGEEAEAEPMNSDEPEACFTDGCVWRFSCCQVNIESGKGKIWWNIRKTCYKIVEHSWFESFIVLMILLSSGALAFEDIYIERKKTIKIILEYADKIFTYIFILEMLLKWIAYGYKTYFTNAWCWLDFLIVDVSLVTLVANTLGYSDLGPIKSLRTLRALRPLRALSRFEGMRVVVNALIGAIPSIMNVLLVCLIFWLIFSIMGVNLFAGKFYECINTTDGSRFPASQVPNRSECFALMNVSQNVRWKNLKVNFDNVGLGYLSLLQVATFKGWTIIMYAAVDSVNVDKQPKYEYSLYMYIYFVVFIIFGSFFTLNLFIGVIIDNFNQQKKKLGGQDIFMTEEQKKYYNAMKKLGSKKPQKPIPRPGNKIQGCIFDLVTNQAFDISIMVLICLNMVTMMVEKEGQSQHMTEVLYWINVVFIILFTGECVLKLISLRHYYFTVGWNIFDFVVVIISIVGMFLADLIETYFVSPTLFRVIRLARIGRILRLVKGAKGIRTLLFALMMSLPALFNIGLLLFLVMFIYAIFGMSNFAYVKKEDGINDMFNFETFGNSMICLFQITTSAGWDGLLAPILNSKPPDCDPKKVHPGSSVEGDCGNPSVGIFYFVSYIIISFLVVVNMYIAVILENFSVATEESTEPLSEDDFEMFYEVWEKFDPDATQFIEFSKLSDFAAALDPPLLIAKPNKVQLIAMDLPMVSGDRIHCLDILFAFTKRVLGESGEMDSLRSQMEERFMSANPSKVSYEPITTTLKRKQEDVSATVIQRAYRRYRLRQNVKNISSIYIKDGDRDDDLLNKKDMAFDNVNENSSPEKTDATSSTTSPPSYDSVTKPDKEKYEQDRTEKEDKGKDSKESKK
Assay: FLIPR sodium dye assay with KCl and test article pre-incubation, recombinant Nav1.7/HEK293 cells
Conditions: Nav1.7, FLIPR assay
Item-by-item account of IC50
Report only the number, with the unit nM understood.

Completed entries (count: 2):
CN(C)c1ncc(-c2ccccc2C2CCCN(C(=O)c3ccc(OC(F)(F)F)cc3)C2)cn1 (stereo not drawn)	689
CN(C)c1ncc(-c2ccccc2C2CCCN(C(=O)Nc3ccc(OC(F)(F)F)cc3)C2)cn1 (stereo not drawn)	941

Attention now turns to another entry.
Param request: IC50 | system human Nav1.7 (Homo sapiens (Human)) | item CSc1ncc(-c2ccccc2C2CCCN(C(=O)c3ccc(OCC(F)(F)F)nc3)C2)cn1 (stereo not drawn)
676
